Assay: Phase 1 Part A food effect (high-fat / low-fat breakfast) on single-dose pharmacokinetics
Type: in vivo, human
Details: human, plasma, oral, 800 mg, 800 mg single dose (A5), Fed, Low-fat; read-out: Vz/F
parameter-measured: Vd/F (L)
Field: numeric (L). Do not append units.

Q: # query: Vd/F of entry Cn1cc(-c2cn(-c3ccc(OC(F)(F)F)cc3)c(=O)c3ncn(C)c23)cn1
A: 63

---

Test: Phase 1 multiple ascending dose (Part B) pharmacokinetics after low-fat meal
Assay type: in vivo, human
Details: human, plasma, oral; 275 mg BID (B3), Day 7, low-fat meal; read-out: Vz/F
parameter-measured: Vd/F (L)
Field: numeric (L). Do not append units.

Q: # query: Vd/F of entry Cn1cc(-c2cn(-c3ccc(OC(F)(F)F)cc3)c(=O)c3ncn(C)c23)cn1
A: 39.6

---

Assay: Phase 1 Part A proton pump inhibitor (rabeprazole) effect on single-dose pharmacokinetics
Assay type: in vivo, human
Conditions: human, plasma, oral, 400 mg single dose (A4), Fasted, +20 mg Rabeprazole QD x 3; median
parameter-measured: Tmax (h)
Field: numeric (h). Do not append units.

Q: # query: Tmax of entry Cn1cc(-c2cn(-c3ccc(OC(F)(F)F)cc3)c(=O)c3ncn(C)c23)cn1
A: 2.5

---

Assay: Phase 1 multiple ascending dose (Part B) pharmacokinetics after low-fat meal
Assay type: in vivo, human
Details: human, plasma, oral, 200 mg BID, 275 mg BID, 525 mg QD; Day 1; read-out: Median tmax, range across regimens
parameter-measured: Tmax at 1 day

Q: # query: Tmax at 1 day of entry Cn1cc(-c2cn(-c3ccc(OC(F)(F)F)cc3)c(=O)c3ncn(C)c23)cn1
A: 2.3 to 3.5 h

---

Assay: Phase 1 multiple ascending dose (Part B) pharmacokinetics after low-fat meal
Type: in vivo, human
Conditions: human, plasma, oral; 275 mg BID (B3), Day 7, low-fat meal
parameter-measured: half-life at 7 day
Report as: number unit

Q: # query: half-life at 7 day of entry Cn1cc(-c2cn(-c3ccc(OC(F)(F)F)cc3)c(=O)c3ncn(C)c23)cn1 [Compound I]
A: 5.6 h

---

Assay: Phase 1 Part A food effect (high-fat / low-fat breakfast) on single-dose pharmacokinetics
Assay type: in vivo, human
Conditions: human, plasma, oral, 400 mg, 400 mg single dose (A4), Fed, High-fat; median; read-out: tmax
parameter-measured: Tmax (h)
Field: numeric (h). Do not append units.

Q: # query: Tmax of entry Cn1cc(-c2cn(-c3ccc(OC(F)(F)F)cc3)c(=O)c3ncn(C)c23)cn1
A: 3.5

---

Experiment: Phase 1 Part A proton pump inhibitor (rabeprazole) effect on single-dose pharmacokinetics
Format: in vivo, human
Settings: human, plasma, oral, 400 mg single dose (A4), Fasted, +20 mg Rabeprazole QD x 3; read-out: Vz/F(norm)
parameter-measured: Vd/F (L/kg)
Field: numeric (L/kg). Do not append units.

Q: # query: Vd/F of entry Cn1cc(-c2cn(-c3ccc(OC(F)(F)F)cc3)c(=O)c3ncn(C)c23)cn1
A: 1.97

---

Assay: Phase 1 single ascending dose (Part A) pharmacokinetics, fasted state
Assay type: in vivo, human
Conditions: human, plasma, oral, higher dose levels (200 to 1600 mg), read-out: tmax, latest individual value
parameter-measured: Tmax

Q: # query: Tmax of entry Cn1cc(-c2cn(-c3ccc(OC(F)(F)F)cc3)c(=O)c3ncn(C)c23)cn1
A: ≤ 6 h

---

Assay: Phase 1 single ascending dose (Part A) pharmacokinetics, fasted state
Format: in vivo, human
Conditions: human, plasma, oral, 75 mg, 75 mg single dose (A2), median, read-out: tmax
parameter-measured: Tmax (h)
Field: numeric (h). Do not append units.

Q: # query: Tmax of entry Cn1cc(-c2cn(-c3ccc(OC(F)(F)F)cc3)c(=O)c3ncn(C)c23)cn1
A: 1.25

---

Experiment: Phase 1 multiple ascending dose (Part B) pharmacokinetics after low-fat meal
Format: in vivo, human
Conditions: human, plasma, oral, 200 mg, 200 mg BID (B1), Day 1, low-fat meal; median
parameter-measured: Tmax
Report as: number unit

Q: # query: Tmax of entry Cn1cc(-c2cn(-c3ccc(OC(F)(F)F)cc3)c(=O)c3ncn(C)c23)cn1
A: 3 h

---

Assay: Phase 1 single ascending dose (Part A) pharmacokinetics, fasted state
Format: in vivo, human
Settings: human, plasma, oral, 800 mg, 800 mg single dose (A5), median, read-out: tmax
Description: A Phase 1, randomized, blinded, placebo-controlled safety, tolerability, and pharmacokinetic study of Compound I in 80 healthy adult subjects was conducted. This study was a randomized, blinded, placebo-controlled, ascending-dose study to evaluate the safety, tolerability, and pharmacokinetic (PK) of single (Part A) and multiple (Part B) doses of Compound I in healthy subjects. […]
parameter-measured: Tmax (h)
Field: numeric (h). Do not append units.

Q: # query: Tmax of entry Cn1cc(-c2cn(-c3ccc(OC(F)(F)F)cc3)c(=O)c3ncn(C)c23)cn1
A: 1.8

---

Experiment: Phase 1 single ascending dose (Part A) pharmacokinetics, fasted state
Type: in vivo, human
Details: human, plasma, po, single oral doses 25 to 1600 mg, read-out: Median tmax, range across all doses
parameter-measured: Tmax

Q: # query: Tmax of entry Cn1cc(-c2cn(-c3ccc(OC(F)(F)F)cc3)c(=O)c3ncn(C)c23)cn1
A: 1.3 to 2.5 h

---

Experiment: Phase 1 single ascending dose (Part A) pharmacokinetics, fasted state
Type: in vivo, human
Conditions: human, plasma, oral, 200 mg, 200 mg single dose (A3)
Protocol: A Phase 1, randomized, blinded, placebo-controlled safety, tolerability, and pharmacokinetic study of Compound I in 80 healthy adult subjects was conducted. This study was a randomized, blinded, placebo-controlled, ascending-dose study to evaluate the safety, tolerability, and pharmacokinetic (PK) of single (Part A) and multiple (Part B) doses of Compound I in healthy subjects. […]
parameter-measured: half-life (h)
Field: numeric (h). Do not append units.

Q: # query: half-life of entry Cn1cc(-c2cn(-c3ccc(OC(F)(F)F)cc3)c(=O)c3ncn(C)c23)cn1
A: 10.2

---

Test: Phase 1 multiple ascending dose (Part B) pharmacokinetics after low-fat meal
Assay type: in vivo, human
Settings: human, urine and plasma, oral, 525 mg, 525 mg QD (B2), Day 7, low-fat meal
parameter-measured: CL renal (mL/min)
Field: numeric (mL/min). Do not append units.

Q: # query: CL renal of entry Cn1cc(-c2cn(-c3ccc(OC(F)(F)F)cc3)c(=O)c3ncn(C)c23)cn1
A: 48.3

---

Experiment: Phase 1 single ascending dose (Part A) pharmacokinetics, fasted state
Type: in vivo, human
Conditions: human, plasma, oral, 75 mg, 75 mg single dose (A2)
parameter-measured: half-life (h)
Field: numeric (h). Do not append units.

Q: # query: half-life of entry Cn1cc(-c2cn(-c3ccc(OC(F)(F)F)cc3)c(=O)c3ncn(C)c23)cn1
A: 5

---

Assay: Phase 1 single ascending dose (Part A) pharmacokinetics, fasted state
Format: in vivo, human
Settings: human, plasma, oral, 400 mg single dose (A4)
parameter-measured: AUC(0-inf) (ng·h/mL)
Field: numeric (ng·h/mL). Do not append units.

Q: # query: AUC(0-inf) of entry Cn1cc(-c2cn(-c3ccc(OC(F)(F)F)cc3)c(=O)c3ncn(C)c23)cn1
A: 55100

---

Assay: Phase 1 single ascending dose (Part A) pharmacokinetics, fasted state
Assay type: in vivo, human
Details: human, plasma, oral, 75 mg, 25 and 75 mg doses, read-out: tmax, latest individual value
parameter-measured: Tmax

Q: # query: Tmax of entry Cn1cc(-c2cn(-c3ccc(OC(F)(F)F)cc3)c(=O)c3ncn(C)c23)cn1
A: ≤ 2.5 h

---

Test: Phase 1 multiple ascending dose (Part B) pharmacokinetics after low-fat meal
Assay type: in vivo, human
Conditions: human, plasma, oral, 525 mg, 525 mg QD (B2), Day 1, low-fat meal
parameter-measured: Cmax
Report as: number unit

Q: # query: Cmax of entry Cn1cc(-c2cn(-c3ccc(OC(F)(F)F)cc3)c(=O)c3ncn(C)c23)cn1 [Compound I]
A: 8510 ng/mL

---

Assay: Phase 1 multiple ascending dose (Part B) pharmacokinetics after low-fat meal
Assay type: in vivo, human
Conditions: human, plasma, oral, 525 mg, 525 mg QD (B2), Day 1, low-fat meal; read-out: AUC0-τ
parameter-measured: AUC (ng·h/mL)
Field: numeric (ng·h/mL). Do not append units.

Q: # query: AUC of entry Cn1cc(-c2cn(-c3ccc(OC(F)(F)F)cc3)c(=O)c3ncn(C)c23)cn1 [Compound I]
A: 78100

---

Test: Phase 1 single ascending dose (Part A) pharmacokinetics, fasted state
Assay type: in vivo, human
Conditions: human, plasma, oral, 1600 mg single dose (A6), read-out: Vz/F(norm)
parameter-measured: Vd/F (L/kg)
Field: numeric (L/kg). Do not append units.

Q: # query: Vd/F of entry Cn1cc(-c2cn(-c3ccc(OC(F)(F)F)cc3)c(=O)c3ncn(C)c23)cn1 [Compound I]
A: 7.62

FYI, the data here is from patent US11925624B2.
